target: BV2562 (recombinant CoV S glycoprotein, BA.4.6) (SARS-CoV-2, UniProt P0DTC2 14-1273); assay: hACE2 receptor inhibition ELISA on coated rS; competitor hACE2-His
RESULT TYPE: IC50 (µg/mL)
Answers are plain numbers, in µg/mL.

BINDER: 425.6 (antibody, V domains shown) VH: VQLKQSGPSLVQPSQSLSITCTVSGFSLTSYGIHWVRQSPGKGLEWLGVIWRGGSTDYNAAFMSRLTITKDNSKSQVFFKMNSLQADDTAIYYCATHTEGDDVDYWGQGTSVTVSS VL: QIVLTQSPAIMSVSPGEKVTMTCSASSTMSFMYWYQQKPGSSPRLLIYDTSNLASGVPVRFSGSGSGTSYSLTISRVEAEDAATYYCQQWNTYPLTFGAGTKLELKR
UNIT OF MEASURE: µg/mL
IC50: 0.071

Consider the record given below.
Field request: IC50 | item: 322.3 (antibody, V domains shown) VH: RVQLQQSGPELVKPGASVTISCKASGYIFTSDYIHWVKQRPGQGPEWIGWIYPGNINTKYNEKFKGKATLTADKSSSTAYMQLSSLTSEDSAVYFCARDDGNLYYYAMDYWGQGTSVTVSS VL: NIVLTQSPASLAVSLGQRATISCRASESVDSYGSSFMHWYQQKPGQPPKLLIYLASNLESGVPARFSGSGSRTDFTLTIDPVEADDAATYYCQQNNEDPRTFGGGTKLEIK 0.411
